This listing pairs compounds with measured IC50.
tested on: interferon alpha signalling (TYK2 and JAK1), STAT3 phosphorylation; assay: Human whole blood INFα induced STAT3 phosphorylation assay; assay type: cell-based; settings: compound 60 minutes at 37° C., IFNα 5000 U/ml for 15 minutes, pSTAT3 in lymphocyte population by flow cytometry, read-out: HWB IFN alpha IC50;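 note: flow cytometry with anti-pSTAT3 staining, signal as percent-positive × mean fluorescence, baseline from unstimulated wells, 11-point dilution series, IC50 as inhibition of pSTAT3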

structure_smiles_string	IC50 / µM
CCNC(=O)N1[C@@H]2CC[C@H]1CN(c1ccnc(Nc3cnsc3)n1)C2	0.213
CNC(=O)c1ncc(Nc2nccc(N3C[C@H]4CC[C@@H](C3)N4C(=O)[C@@H]3C[C@H]3C#N)n2)cc1C	0.115
Cn1cc(Nc2ncc(F)c(N3C[C@@]4(CO)C[C@@]4(NC(=O)[C@@H]4CC4(F)F)C3)n2)cn1	0.507
Cc1cc(Nc2nccc(N3C[C@H]4CC[C@@H](C3)N4C(=O)[C@@H]3CC3(F)F)n2)cnc1C(N)=O	0.09

---

target: recombinant human kinase domain of JAK3 (Homo sapiens (Human), UniProt P52333); experiment: JAK Caliper enzyme assay at 1 mM ATP (JAK3); type: biochemical; settings: 1 mM ATP; read-out: IC50 (nM) JAK3;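 note: microfluidic mobility-shift readout of synthetic peptide phosphorylation, percent product converted from peak heights, normalized to DMSO-only wells as uninhibited baseline, room temperature incubation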
Sequence (P52333 822-1111): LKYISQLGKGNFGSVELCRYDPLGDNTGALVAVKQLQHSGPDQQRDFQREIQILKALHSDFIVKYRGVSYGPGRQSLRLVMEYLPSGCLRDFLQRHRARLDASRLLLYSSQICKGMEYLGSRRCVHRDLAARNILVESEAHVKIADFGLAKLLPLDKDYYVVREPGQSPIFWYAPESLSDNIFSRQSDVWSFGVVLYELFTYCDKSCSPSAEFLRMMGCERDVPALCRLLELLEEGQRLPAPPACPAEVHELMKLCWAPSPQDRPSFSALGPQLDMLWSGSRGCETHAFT
observed_property: IC50

molecule	assay_target	result
CCNC(=O)c1ccc(Nc2nccc(N3CC4CC(C3)N4C(=O)C3CC3)n2)cc1C	recombinant human kinase domain of JAK3 (Homo sapiens (Human), UniProt P52333)	> 10000 nM
Cn1cc(Nc2nccc(N3C[C@H]4CC[C@@H](C3)N4C(=O)[C@@H]3C[C@@H]3F)n2)cn1	recombinant human kinase domain of JAK3 (Homo sapiens (Human), UniProt P52333)	> 10000 nM
CNC(=O)c1cc(Nc2nccc(N3C[C@H]4CC[C@@H](C3)N4C(=O)[C@@H]3CC3(F)F)n2)cc(CO)n1	recombinant human kinase domain of JAK3 (Homo sapiens (Human), UniProt P52333)	> 10000 nM
C[C@@H]1[C@@H]2CN(c3nc(Nc4ccc([C@@H](C)CO)nc4)ncc3F)C[C@]12NC(=O)C1CC1 (single isomer, unassigned)	recombinant human kinase domain of JAK3 (Homo sapiens (Human), UniProt P52333)	> 10000 nM
CNC(=O)c1ncc(Nc2nccc(N3C[C@H]4CC[C@@H](C3)N4C[C@H]3CC3(F)F)n2)cc1C	recombinant human kinase domain of JAK3 (Homo sapiens (Human), UniProt P52333)	> 10000 nM
CC(CC#N)N1[C@@H]2CC[C@H]1CN(c1ccnc(Nc3cnn(C)c3)n1)C2 (stereo partly drawn) [Example 81]	recombinant human kinase domain of JAK3 (Homo sapiens (Human), UniProt P52333)	> 10000 nM

---

This listing pairs molecules with measured IC50.
molecular target: recombinant human kinase domain of JAK2 (Homo sapiens (Human), UniProt O60674); assay: JAK Caliper enzyme assay at 1 mM ATP (JAK2); assay type: biochemical;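 note: microfluidic mobility-shift read-out of fluorescent synthetic peptide phosphorylation, percent product converted from peak heights, room temperature, DMSO-only wells as uninhibited baseline, inhibition curve fit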
Sequence (O60674 849-1124): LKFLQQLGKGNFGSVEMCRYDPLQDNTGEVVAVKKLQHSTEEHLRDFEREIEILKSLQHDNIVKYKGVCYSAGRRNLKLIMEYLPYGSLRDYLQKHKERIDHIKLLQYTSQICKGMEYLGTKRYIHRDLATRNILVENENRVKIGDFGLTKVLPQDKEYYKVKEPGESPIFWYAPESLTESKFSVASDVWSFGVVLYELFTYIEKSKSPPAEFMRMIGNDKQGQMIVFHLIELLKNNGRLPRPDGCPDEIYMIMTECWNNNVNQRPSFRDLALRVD
observed_property: IC50

molecule	assay_target	result
O=C(N[C@@]12C[C@@H]1CN(c1nc(Nc3cnn(CCO)c3)ncc1Cl)C2)C1CC1	recombinant human kinase domain of JAK2 (Homo sapiens (Human), UniProt O60674)	177 nM
Cn1cc(Nc2nccc(N3C[C@H]4CC[C@@H](C3)N4c3cc(C#N)ccn3)n2)cn1	recombinant human kinase domain of JAK2 (Homo sapiens (Human), UniProt O60674)	264 nM
C[C@H](CO)c1ccc(Nc2nccc(N3C[C@H]4CC[C@@H](C3)N4C(=O)[C@@H]3CC3(F)F)n2)cn1 (single isomer, unassigned)	recombinant human kinase domain of JAK2 (Homo sapiens (Human), UniProt O60674)	80 nM
O=C([C@@H]1CC1(F)F)N1[C@@H]2CC[C@H]1CN(c1ccnc(Nc3cnc(CO)c(F)c3)n1)C2	recombinant human kinase domain of JAK2 (Homo sapiens (Human), UniProt O60674)	468 nM
Cn1cc(Nc2nccc(N3C[C@H]4CC[C@@H](C3)N4C(=O)[C@@H]3C[C@@H]3F)n2)cn1	recombinant human kinase domain of JAK2 (Homo sapiens (Human), UniProt O60674)	2840 nM
CNC(=O)c1ncc(Nc2nccc(N3C[C@H]4CC[C@@H](C3)N4C(=O)NCC(F)(F)F)n2)cc1C	recombinant human kinase domain of JAK2 (Homo sapiens (Human), UniProt O60674)	65 nM
Cn1cc(Nc2nccc(N3C[C@H]4CC[C@@H](C3)N4C(=O)[C@H]3C[C@H]3C#N)n2)cn1	recombinant human kinase domain of JAK2 (Homo sapiens (Human), UniProt O60674)	2330 nM
CNC(=O)c1ncc(Nc2nccc(N3C[C@H]4CC[C@@H](C3)N4Cc3ccno3)n2)cc1C	recombinant human kinase domain of JAK2 (Homo sapiens (Human), UniProt O60674)	375 nM
O=C(c1ccno1)N1[C@@H]2CC[C@H]1CN(c1ccnc(Nc3cn[nH]c3)n1)C2	recombinant human kinase domain of JAK2 (Homo sapiens (Human), UniProt O60674)	3380 nM
C[C@@H]1[C@@H]2CN(c3nc(Nc4ccc([C@@H](C)CO)nc4)ncc3F)C[C@]12NC(=O)C1CC1 (single isomer, unassigned)	recombinant human kinase domain of JAK2 (Homo sapiens (Human), UniProt O60674)	3460 nM
CC(C)(C#N)c1ccc(Nc2nccc(N3C[C@H]4CC[C@@H](C3)N4C(=O)[C@@H]3CC3(F)F)n2)cn1	recombinant human kinase domain of JAK2 (Homo sapiens (Human), UniProt O60674)	192 nM
CNC(=O)c1cc(Nc2nccc(N3C[C@H]4CC[C@@H](C3)N4C(=O)[C@@H]3CC3(F)F)n2)cc(C)n1	recombinant human kinase domain of JAK2 (Homo sapiens (Human), UniProt O60674)	189 nM
Cn1cc(Nc2nccc(N3C[C@H]4CC[C@@H](C3)N4C[C@H]3C[C@@H]3C#N)n2)cn1 [Example 70]	recombinant human kinase domain of JAK2 (Homo sapiens (Human), UniProt O60674)	1540 nM
Cn1cc(Nc2nccc(N3C[C@H]4CC[C@@H](C3)N4S(C)(=O)=O)n2)cn1	recombinant human kinase domain of JAK2 (Homo sapiens (Human), UniProt O60674)	653 nM
Cn1cc(Nc2nccc(N3C[C@H]4CC[C@@H](C3)N4Cc3nccs3)n2)cn1	recombinant human kinase domain of JAK2 (Homo sapiens (Human), UniProt O60674)	1070 nM
CNC(=O)c1ncc(Nc2ncc(F)c(N3C[C@@H]4[C@H](C)[C@]4(NC(=O)C4CC4)C3)n2)cc1C	recombinant human kinase domain of JAK2 (Homo sapiens (Human), UniProt O60674)	2910 nM
Cn1cc(Nc2ncc(F)c(N3C[C@@]4(CO)C[C@@]4(NC(=O)[C@@H]4C[C@H]4C#N)C3)n2)cn1	recombinant human kinase domain of JAK2 (Homo sapiens (Human), UniProt O60674)	455 nM
O=C(N[C@]12C[C@H]1CN(c1nc(Nc3cnn(CCO)c3)ncc1Cl)C2)C1CC1	recombinant human kinase domain of JAK2 (Homo sapiens (Human), UniProt O60674)	1490 nM
CCNC(=O)c1ccc(Nc2ncc(F)c(N3CC4CC(C3)N4C(=O)C(C)(F)F)n2)cc1C	recombinant human kinase domain of JAK2 (Homo sapiens (Human), UniProt O60674)	2210 nM
CNC(=O)c1ncc(Nc2nccc(N3C[C@H]4CC[C@@H](C3)N4C(=O)[C@H]3CC3(F)F)n2)cc1F	recombinant human kinase domain of JAK2 (Homo sapiens (Human), UniProt O60674)	8150 nM
Cc1cc(Nc2nccc(N3C[C@H]4CC[C@@H](C3)N4C(=O)C3CC3(F)F)n2)cnc1C(N)=O (stereo partly drawn)	recombinant human kinase domain of JAK2 (Homo sapiens (Human), UniProt O60674)	377 nM
CCNC(=O)c1ccc(Nc2ncc(F)c(N3CC4CC(C3)N4C(=O)C(C)(C)F)n2)cc1C	recombinant human kinase domain of JAK2 (Homo sapiens (Human), UniProt O60674)	3040 nM
CNC(=O)c1ncc(Nc2nccc(N3C[C@H]4CC[C@@H](C3)N4C(=O)[C@@H]3C[C@H]3C#N)n2)cc1Cl	recombinant human kinase domain of JAK2 (Homo sapiens (Human), UniProt O60674)	401 nM
Cn1cc(Nc2nccc(N3C[C@H]4CC[C@@H](C3)N4C3CC(C#N)C3)n2)cn1 (stereo partly drawn)	recombinant human kinase domain of JAK2 (Homo sapiens (Human), UniProt O60674)	236 nM
